Reference source for all entries: ChEMBL document CHEMBL3616414

Exercise: state measured IC50 for each of the compounds provided.
# assay procedure: Inhibition of HIV1 gp120 binding to CD4 by SPR competition binding assay
# Set-up: species or system Human immunodeficiency virus 1
Respond numerically; units are nM and should not be typed.

## Input Param item = `CC[C@@H](C)[C@H]1NC(=O)[C@@H](CC(N)=O)NC(=O)[C@@H](N)CC(=O)NCC[C@H](C(N)=O)NC(=O)[C@@H](Cc2c[nH]c3ccccc23)NC(=O)[C@H]2C[C@@H](n3cc(CCc4ccccc4)nn3)CN2C1=O` ; retrieve measured IC50.
## Output 500

## Input Param item = `CC[C@@H](C)[C@H]1NC(=O)[C@@H](CC(N)=O)NC(=O)[C@@H](N)CC(=O)NCCC[C@H](C(N)=O)NC(=O)[C@@H](Cc2c[nH]c3ccccc23)NC(=O)[C@H]2C[C@@H](n3cc(CCc4ccccc4)nn3)CN2C1=O` ; retrieve measured IC50.
## Output 5700

## Input Param item = `CC[C@@H](C)[C@@H](N)C(=O)N[C@H]1CCC(=O)NCCCC[C@H](C(N)=O)NC(=O)[C@@H](Cc2c[nH]c3ccccc23)NC(=O)[C@H]2C[C@@H](n3cc(CCc4ccccc4)nn3)CN2C(=O)[C@@H]([C@H](C)CC)NC(=O)[C@@H](CC(N)=O)NC1=O` ; retrieve measured IC50.
## Output 138

## Input Param item = `CC[C@@H](C)[C@H]1NC(=O)[C@@H](CC(N)=O)NC(=O)[C@@H](N)CC(=O)NCCCC[C@H](C(N)=O)NC(=O)[C@@H](Cc2c[nH]c3ccccc23)NC(=O)[C@H]2C[C@@H](n3cc(CCc4ccccc4)nn3)CN2C1=O` ; retrieve measured IC50.
## Output 85

====

# assay procedure: Inhibition of HIV1 gp120 binding to 17b antibody by SPR competition binding assay
# Parameters: species or system Human immunodeficiency virus 1
Exercise: state measured pIC50 for each of the molecules provided.
pIC50 is defined as minus the log10 of a concentration measured in mol/L.

## Input Param item = `CC[C@@H](C)[C@H]1NC(=O)[C@@H](CC(N)=O)NC(=O)[C@@H](N)CC(=O)NCC[C@H](C(N)=O)NC(=O)[C@@H](Cc2c[nH]c3ccccc23)NC(=O)[C@H]2C[C@@H](n3cc(CCc4ccccc4)nn3)CN2C1=O` ; retrieve measured pIC50.
## Output 6.40

## Input Param item = `CC[C@@H](C)[C@H]1NC(=O)[C@@H](CC(N)=O)NC(=O)[C@@H](N)CC(=O)NCCCC[C@H](C(N)=O)NC(=O)[C@@H](Cc2c[nH]c3ccccc23)NC(=O)[C@H]2C[C@@H](n3cc(CCc4ccccc4)nn3)CN2C1=O` ; retrieve measured pIC50.
## Output 7.02

## Input Param item = `CC[C@@H](C)[C@@H](N)C(=O)N[C@H]1CCC(=O)NCCCC[C@H](C(N)=O)NC(=O)[C@@H](Cc2c[nH]c3ccccc23)NC(=O)[C@H]2C[C@@H](n3cc(CCc4ccccc4)nn3)CN2C(=O)[C@@H]([C@H](C)CC)NC(=O)[C@@H](CC(N)=O)NC1=O` ; retrieve measured pIC50.
## Output 6.57

## Input Param item = `CC[C@@H](C)[C@H]1NC(=O)[C@@H](CC(N)=O)NC(=O)[C@@H](N)CC(=O)NCCC[C@H](C(N)=O)NC(=O)[C@@H](Cc2c[nH]c3ccccc23)NC(=O)[C@H]2C[C@@H](n3cc(CCc4ccccc4)nn3)CN2C1=O` ; retrieve measured pIC50.
## Output 5.41
